test target: Histone-lysine N-methyltransferase EHMT2 (Homo sapiens)
assay summary: qHTS Assay for Inhibitors of Histone Lysine Methyltransferase G9a; note: % is set by controls: 0 for no effect and ±100 for the full control effect; nearly all actives have a fitted effect of over 75% in size
measurement parameters: G9a H3K9 monomethylation, AlphaScreen, 2 h; series mostly up to 59 µM
Hit rate of the full screen: of about 350,000 compounds, about 31,000 (8.9%) were called active. Roughly 15% stayed inconclusive and do not appear here. Calls come from the whole dose curve; as a rule, active = well fitted inhibition curve with a large enough effect; inconclusive = small, poorly fitted or top-dose-only effect; inactive = no such curve, though single readings can be large or run the other way. This excerpt belongs to a sample that is enriched for actives.
Parameter call: string, one of class 1 (active), class 0 (inactive)

Field: example entries. Status: answers known.
1. Cc1ccc2nc(COc3ccccc3NC(=O)Nc3ccc(F)c(Cl)c3)cc(=O)n2c1; class 0
2. CCOc1ccc(N(CC)C(=O)c2cc3c(=O)oc4ccccc4c3s2)cc1; class 0
3. Cc1ccc(NC(=O)CN(C)C(=O)c2cccc(S(=O)(=O)N3CCCC3)c2)cc1; class 0
4. COc1ccccc1CNc1ccc(-c2nc(-c3ccccc3C)no2)cc1[N+](=O)[O-]; class 0
5. CC(C)NC(=O)c1nn(-c2ccccc2F)nc1CO; class 0

Ask: What did this assay record as the result for `O=C(CCCn1c(SCC(=O)c2ccc(F)cc2)nc2ccccc2c1=O)NCc1ccco1` ?
Reply: class 0

Ask: Ok, now CC(CCCc1ccccc1)NC(=O)c1nn(-c2ccc(Cl)cc2)nc1CO (stereo not given)
Reply: class 0
